target: T1, streptavidin (UniProt P22629 37-163, limits assumed); assay: whole-cell dissociation by flow cytometry, 1-2 uM biotin as competitor
T1 construct: Used as phycoerythrin conjugate or on coated beads; also called SA; streptavidin-phycoerythrin
MEASURE: koff

# input Which koff reading was recorded for the binder IMMECFYVCTIANTQ (Insert only) [SA-8] ?
# output ~0.01 s⁻¹

# input Name the recorded koff for YWVCMNVCMYYTARQ (Insert only) [SA-5] .
# output ~0.001 s⁻¹

# input Sample ICSYVMYTTCFLRVY (Insert only) [SA-2] — what was its koff?
# output ~0.001 s⁻¹

# input # lookup: koff of SITICWYTCMVQKTA (Insert only) [SA-10]
# output ~0.01 s⁻¹

# input What value of koff has been recorded for this entry: ADTICWYVCTISVHA (Insert only) [SA-11]
# output ~0.01 s⁻¹

Continuing:
# input binder: RLEICQNVCYYLGTL (Insert only; also called SA-1 pep) [SA-1] ; wanted: its koff
# output ~0.001 s⁻¹

Data origin: patent US20190264194A1
